Ref: patent US11414377B2

# target-or-test-system: recombinant human delta opioid receptor (Homo sapiens, UniProt P41143)
# Sequence (P41143 whole entry): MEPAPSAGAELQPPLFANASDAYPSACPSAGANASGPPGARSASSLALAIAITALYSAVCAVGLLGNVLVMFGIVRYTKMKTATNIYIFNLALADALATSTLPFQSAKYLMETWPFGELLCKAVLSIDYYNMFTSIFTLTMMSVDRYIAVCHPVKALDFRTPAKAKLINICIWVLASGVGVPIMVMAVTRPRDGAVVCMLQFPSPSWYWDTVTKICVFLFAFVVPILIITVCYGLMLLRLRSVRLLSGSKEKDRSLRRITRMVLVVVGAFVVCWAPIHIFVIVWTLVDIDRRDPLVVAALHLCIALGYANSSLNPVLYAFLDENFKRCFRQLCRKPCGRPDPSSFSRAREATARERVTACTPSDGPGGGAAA
# assay-summary: Delta-opioid receptor radioligand displacement ([3H]DADLE)
pIC50: −log10 of the molar value.
metric-name: pIC50

| structure-as-smiles | test-result |
| --- | --- |
| O=C(Cc1ccc(O)cc1)N[C@@H](Cc1ccccc1)C(=O)NCCc1ccccc1 | 4.19 |

---

# target-or-test-system: human recombinant μ-opioid receptor (Homo sapiens)
# Sequence (P35372 whole entry): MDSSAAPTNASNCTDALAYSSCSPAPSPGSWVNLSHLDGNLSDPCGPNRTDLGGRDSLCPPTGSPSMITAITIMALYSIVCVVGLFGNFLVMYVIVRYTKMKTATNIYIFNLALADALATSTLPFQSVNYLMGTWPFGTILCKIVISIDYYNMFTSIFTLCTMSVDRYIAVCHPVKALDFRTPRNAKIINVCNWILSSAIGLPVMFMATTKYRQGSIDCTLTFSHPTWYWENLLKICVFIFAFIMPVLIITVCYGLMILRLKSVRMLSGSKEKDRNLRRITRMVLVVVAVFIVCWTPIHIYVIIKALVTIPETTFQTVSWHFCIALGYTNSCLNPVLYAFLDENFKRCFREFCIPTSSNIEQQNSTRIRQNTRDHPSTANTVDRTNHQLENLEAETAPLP
# assay-summary: μ-opioid receptor radioligand displacement ([3H]DAMGO)
pIC50: −log10 of the molar value.
metric-name: pIC50

| structure-as-smiles | test-result |
| --- | --- |
| O=C(Cc1ccc(O)cc1)N[C@@H](Cc1ccccc1)C(=O)NCCc1ccccc1 | 5.39 |

---

# target-or-test-system: human NK1R (Homo sapiens, UniProt P25103)
# Construct: U373 cells expressing human NK1R were used in the experiment; endogenous in cells
# Sequence (P25103 whole entry): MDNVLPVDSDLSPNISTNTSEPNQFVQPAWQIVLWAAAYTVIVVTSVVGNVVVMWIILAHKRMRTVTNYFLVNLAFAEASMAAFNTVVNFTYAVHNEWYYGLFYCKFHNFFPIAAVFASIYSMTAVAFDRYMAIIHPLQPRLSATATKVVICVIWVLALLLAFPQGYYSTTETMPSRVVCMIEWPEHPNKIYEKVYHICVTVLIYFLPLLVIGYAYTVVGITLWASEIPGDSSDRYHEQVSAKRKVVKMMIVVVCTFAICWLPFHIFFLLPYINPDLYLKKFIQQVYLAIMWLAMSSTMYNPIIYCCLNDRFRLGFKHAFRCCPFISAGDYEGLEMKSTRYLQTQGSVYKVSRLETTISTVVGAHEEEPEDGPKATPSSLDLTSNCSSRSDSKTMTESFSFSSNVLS
# assay-summary: Effect on activity of tachykinin receptor type 1 (intracellular calcium, fluorescence)
# condition-summary: U373 cells expressing human NK1R, agonist [Sar9,Met(O2)11]-SP 1 nM, read-out: IC50, antagonist of tachykinin receptor type 1
# Protocol: Compound I was dissolved in DMSO to a concentration of 100 mM; then the stock solution was serially diluted with DMSO. The maximal start concentration of substance is 100 μM. The effect was determined at 8 concentrations of test compound, each concentration was investigated twice. […]
metric-name: IC50 (µM)

| compound | metric-name | test-result |
| --- | --- | --- |
| O=C(Cc1ccc(O)cc1)N[C@@H](Cc1ccccc1)C(=O)NCCc1ccccc1 [Compound I] | IC50 | 59 |

---

# target-or-test-system: UniProt:P21452
# Sequence (P21452 whole entry): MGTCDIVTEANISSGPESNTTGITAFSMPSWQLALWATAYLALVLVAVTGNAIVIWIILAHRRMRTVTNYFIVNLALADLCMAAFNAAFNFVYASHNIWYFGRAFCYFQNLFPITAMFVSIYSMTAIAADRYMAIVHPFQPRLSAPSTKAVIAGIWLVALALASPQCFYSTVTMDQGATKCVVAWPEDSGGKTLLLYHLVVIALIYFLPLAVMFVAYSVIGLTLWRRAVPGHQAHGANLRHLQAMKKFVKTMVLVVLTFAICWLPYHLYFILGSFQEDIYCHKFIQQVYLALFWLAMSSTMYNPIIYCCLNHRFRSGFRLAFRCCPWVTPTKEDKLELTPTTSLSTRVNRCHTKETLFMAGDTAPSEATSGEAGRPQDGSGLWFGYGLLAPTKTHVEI
# assay-summary: Effect on activity of tachykinin receptor type 2 (intracellular calcium, fluorescence)
# condition-summary: CHO cells expressing human NK2R, agonist [Nleu10]-NKA-(4-10) 10 nM, read-out: IC50, antagonist of tachykinin receptor type 2
# Protocol: Compound I was dissolved in DMSO to a concentration of 100 mM; then the stock solution was serially diluted with DMSO. The maximal start concentration of substance is […]. The effect was determined at 8 concentrations of test compound, each concentration was investigated twice. […] The activity of receptors was determined by the intracellular calcium concentration using fluorescence spectroscopy (Biochem Biophys Res Commun. 1994 May 16; 200(3):1512-20).

| structure-as-smiles | unit-spec | IC50 |
| --- | --- | --- |
| O=C(Cc1ccc(O)cc1)N[C@@H](Cc1ccccc1)C(=O)NCCc1ccccc1 | µM | 6.4 |

---

# target-or-test-system: NK3R (Homo sapiens, UniProt P29371)
# Sequence (P29371 whole entry, species assumed): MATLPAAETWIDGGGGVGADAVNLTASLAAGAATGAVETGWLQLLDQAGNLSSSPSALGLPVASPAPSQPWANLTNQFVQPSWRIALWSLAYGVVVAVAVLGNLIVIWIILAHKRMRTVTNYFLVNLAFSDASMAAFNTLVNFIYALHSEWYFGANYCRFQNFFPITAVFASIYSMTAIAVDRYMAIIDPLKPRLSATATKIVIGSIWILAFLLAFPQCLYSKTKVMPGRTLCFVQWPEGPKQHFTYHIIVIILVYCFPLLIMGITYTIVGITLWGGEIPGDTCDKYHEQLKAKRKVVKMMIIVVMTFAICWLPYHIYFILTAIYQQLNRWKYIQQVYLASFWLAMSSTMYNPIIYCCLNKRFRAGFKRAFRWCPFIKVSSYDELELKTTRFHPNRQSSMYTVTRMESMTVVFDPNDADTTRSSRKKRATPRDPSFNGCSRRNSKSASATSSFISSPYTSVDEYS
# assay-summary: Effect on activity of tachykinin receptor type 3 (intracellular calcium, fluorescence)
# condition-summary: CHO-K1 cells expressing NK3R, agonist [MePhe10]-NKB 1 nM, read-out: IC50, antagonist of tachykinin receptor type 3

| compound | IC50 |
| --- | --- |
| O=C(Cc1ccc(O)cc1)N[C@@H](Cc1ccccc1)C(=O)NCCc1ccccc1 [Compound I] | 15 µM |

---

# target-or-test-system: kappa opioid receptor (Homo sapiens)
# Sequence (P41145 whole entry): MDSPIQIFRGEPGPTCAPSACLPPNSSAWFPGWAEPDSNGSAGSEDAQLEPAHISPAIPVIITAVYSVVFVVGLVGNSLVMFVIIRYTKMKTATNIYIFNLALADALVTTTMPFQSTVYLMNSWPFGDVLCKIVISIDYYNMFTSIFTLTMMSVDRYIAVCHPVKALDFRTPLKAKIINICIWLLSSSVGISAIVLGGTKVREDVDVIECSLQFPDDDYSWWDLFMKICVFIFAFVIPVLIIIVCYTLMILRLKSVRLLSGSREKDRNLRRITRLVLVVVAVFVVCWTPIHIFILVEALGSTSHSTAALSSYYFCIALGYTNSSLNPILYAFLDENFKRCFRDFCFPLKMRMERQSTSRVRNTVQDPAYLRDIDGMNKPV

| structure-as-smiles | IC50, µM |
| --- | --- |
| O=C(Cc1ccc(O)cc1)N[C@@H](Cc1ccccc1)C(=O)NCCc1ccccc1 | 7.1 |

---

# target-or-test-system: TRPV1 ion channel (Homo sapiens, UniProt Q8NER1)
# Sequence (Q8NER1 whole entry): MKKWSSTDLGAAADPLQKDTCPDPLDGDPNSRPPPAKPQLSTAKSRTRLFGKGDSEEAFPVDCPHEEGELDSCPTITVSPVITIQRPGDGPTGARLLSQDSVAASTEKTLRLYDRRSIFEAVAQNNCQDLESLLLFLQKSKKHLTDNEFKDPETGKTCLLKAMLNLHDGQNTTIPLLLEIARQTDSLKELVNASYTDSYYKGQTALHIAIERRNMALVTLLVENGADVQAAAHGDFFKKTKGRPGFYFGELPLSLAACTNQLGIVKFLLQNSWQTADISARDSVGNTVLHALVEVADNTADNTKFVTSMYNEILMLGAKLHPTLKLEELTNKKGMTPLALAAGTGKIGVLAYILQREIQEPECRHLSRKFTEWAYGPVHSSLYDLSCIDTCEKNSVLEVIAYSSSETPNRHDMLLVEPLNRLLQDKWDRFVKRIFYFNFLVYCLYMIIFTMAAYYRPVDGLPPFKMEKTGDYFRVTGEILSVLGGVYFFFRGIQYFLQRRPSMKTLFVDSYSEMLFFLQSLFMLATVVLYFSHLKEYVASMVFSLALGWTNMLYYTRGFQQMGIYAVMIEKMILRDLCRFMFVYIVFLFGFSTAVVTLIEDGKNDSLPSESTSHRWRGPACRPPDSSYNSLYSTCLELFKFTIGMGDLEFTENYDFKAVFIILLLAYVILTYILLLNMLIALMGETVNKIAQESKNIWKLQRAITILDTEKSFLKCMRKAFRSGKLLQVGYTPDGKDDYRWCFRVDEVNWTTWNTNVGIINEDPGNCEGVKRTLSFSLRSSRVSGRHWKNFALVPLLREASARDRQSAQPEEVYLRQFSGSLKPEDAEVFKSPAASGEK
# assay-summary: Effect on activity of TRPV1 ion channel (Fluo-4 AM calcium)
# condition-summary: TRPV1 expressing CHO cells; Capsaicin 30 nM; intracellular calcium; read-out: IC50, blocker of TRPV1 ion channel
pIC50: −log10 of the molar value.
metric-name: pIC50

| molecule | metric-name | test-result |
| --- | --- | --- |
| O=C(Cc1ccc(O)cc1)N[C@@H](Cc1ccccc1)C(=O)NCCc1ccccc1 [Compound I] | pIC50 | 4.29 |

---

# target-or-test-system: TRPM8 ion channel (Homo sapiens, UniProt Q7Z2W7)
# Construct: expressed in transfected cells; host or cells: HEK293 cells
# Sequence (Q7Z2W7 whole entry): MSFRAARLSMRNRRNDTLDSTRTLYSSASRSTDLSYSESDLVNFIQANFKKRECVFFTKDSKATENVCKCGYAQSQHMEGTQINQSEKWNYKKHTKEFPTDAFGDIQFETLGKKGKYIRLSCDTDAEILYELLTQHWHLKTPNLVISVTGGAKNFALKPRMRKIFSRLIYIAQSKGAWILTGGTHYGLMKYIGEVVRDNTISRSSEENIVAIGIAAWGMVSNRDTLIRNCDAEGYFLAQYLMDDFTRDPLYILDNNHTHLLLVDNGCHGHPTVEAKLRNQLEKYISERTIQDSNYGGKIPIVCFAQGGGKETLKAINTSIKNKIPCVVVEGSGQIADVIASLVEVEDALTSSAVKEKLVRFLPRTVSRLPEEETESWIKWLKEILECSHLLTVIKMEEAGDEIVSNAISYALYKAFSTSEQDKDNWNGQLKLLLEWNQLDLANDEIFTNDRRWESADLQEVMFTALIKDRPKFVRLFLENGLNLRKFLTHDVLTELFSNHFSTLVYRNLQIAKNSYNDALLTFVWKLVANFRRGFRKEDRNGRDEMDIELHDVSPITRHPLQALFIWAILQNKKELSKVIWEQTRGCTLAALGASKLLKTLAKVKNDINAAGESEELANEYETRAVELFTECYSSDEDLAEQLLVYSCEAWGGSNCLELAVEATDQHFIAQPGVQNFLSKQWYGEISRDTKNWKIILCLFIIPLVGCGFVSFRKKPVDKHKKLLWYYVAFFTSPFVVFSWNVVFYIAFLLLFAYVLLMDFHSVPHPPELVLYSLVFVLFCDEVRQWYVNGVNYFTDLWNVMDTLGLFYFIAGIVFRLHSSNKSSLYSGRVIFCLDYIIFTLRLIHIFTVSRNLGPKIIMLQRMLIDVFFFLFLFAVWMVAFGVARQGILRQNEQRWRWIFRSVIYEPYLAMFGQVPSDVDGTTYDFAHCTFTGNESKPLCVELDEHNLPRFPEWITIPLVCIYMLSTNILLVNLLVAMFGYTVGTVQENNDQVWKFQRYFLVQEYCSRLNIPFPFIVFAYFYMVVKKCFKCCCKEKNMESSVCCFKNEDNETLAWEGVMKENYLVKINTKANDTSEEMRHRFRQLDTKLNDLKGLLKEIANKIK
# assay-summary: Effect on activity of TRPM8 ion channel (Fluo-4 AM calcium)
# Type: cell-based
# condition-summary: TRPM8 expressing HEK293 cells; Icilin 100 nM; intracellular calcium; read-out: IC50, blocker of TRPM8 ion channel

| structure-as-smiles | target-or-test-system | IC50 / µM |
| --- | --- | --- |
| O=C(Cc1ccc(O)cc1)N[C@@H](Cc1ccccc1)C(=O)NCCc1ccccc1 | TRPM8 ion channel (Homo sapiens, UniProt Q7Z2W7) | 62 |
